- Assay Details: Therapeutic Index was determined
- Condition Notes: read-out: TI

{"Chemical Structure": "Nc1ccc(S(=O)(=O)N(CCOC(=O)CCCc2ccc(N(CCCl)CCCl)cc2)c2ncccn2)cc1", "selectivity ratio": 47.5}
{"Chemical Structure": "O=C(O)CCCc1ccc(N(CCCl)CCCl)cc1", "selectivity ratio": 22.8}
